Target: UniProtKB P09619
Sequence (P09619 33-1106, species assumed): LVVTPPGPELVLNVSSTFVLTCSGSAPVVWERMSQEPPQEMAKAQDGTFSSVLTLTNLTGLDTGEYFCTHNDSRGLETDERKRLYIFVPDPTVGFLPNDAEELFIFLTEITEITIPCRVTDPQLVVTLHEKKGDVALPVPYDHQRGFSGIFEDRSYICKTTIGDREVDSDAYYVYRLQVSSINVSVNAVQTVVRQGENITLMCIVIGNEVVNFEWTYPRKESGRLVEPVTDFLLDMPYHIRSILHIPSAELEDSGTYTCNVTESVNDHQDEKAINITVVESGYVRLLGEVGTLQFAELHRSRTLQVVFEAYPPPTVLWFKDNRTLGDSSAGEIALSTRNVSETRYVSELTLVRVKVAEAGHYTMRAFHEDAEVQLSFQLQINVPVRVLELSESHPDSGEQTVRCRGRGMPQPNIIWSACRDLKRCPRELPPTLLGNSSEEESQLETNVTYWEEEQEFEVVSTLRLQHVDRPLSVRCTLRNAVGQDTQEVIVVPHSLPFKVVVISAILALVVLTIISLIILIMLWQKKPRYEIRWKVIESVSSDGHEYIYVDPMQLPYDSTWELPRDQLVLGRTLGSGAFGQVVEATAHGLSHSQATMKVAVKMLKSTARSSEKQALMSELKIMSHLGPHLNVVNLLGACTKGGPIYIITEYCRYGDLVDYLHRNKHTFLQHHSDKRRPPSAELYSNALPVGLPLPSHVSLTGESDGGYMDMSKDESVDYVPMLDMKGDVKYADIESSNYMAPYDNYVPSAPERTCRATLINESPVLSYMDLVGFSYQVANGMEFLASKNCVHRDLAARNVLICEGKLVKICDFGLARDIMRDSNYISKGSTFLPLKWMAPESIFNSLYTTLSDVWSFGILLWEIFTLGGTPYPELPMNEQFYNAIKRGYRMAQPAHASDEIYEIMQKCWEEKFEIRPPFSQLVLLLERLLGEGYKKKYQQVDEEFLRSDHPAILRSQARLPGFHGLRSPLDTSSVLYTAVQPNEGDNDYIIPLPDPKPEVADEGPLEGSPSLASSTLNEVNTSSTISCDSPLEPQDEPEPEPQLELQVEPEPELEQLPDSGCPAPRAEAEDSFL
MEASURED_PROPERTY: IC50

Which IC50 value is on record for "C[C@H]1CN(C(=O)CC#N)[C@]12CCN(c1ncnc3[nH]ccc13)C2" ? > 1 µM

----------
Target: PDK1 (Homo sapiens, UniProt O15530)
Sequence (O15530 1-556): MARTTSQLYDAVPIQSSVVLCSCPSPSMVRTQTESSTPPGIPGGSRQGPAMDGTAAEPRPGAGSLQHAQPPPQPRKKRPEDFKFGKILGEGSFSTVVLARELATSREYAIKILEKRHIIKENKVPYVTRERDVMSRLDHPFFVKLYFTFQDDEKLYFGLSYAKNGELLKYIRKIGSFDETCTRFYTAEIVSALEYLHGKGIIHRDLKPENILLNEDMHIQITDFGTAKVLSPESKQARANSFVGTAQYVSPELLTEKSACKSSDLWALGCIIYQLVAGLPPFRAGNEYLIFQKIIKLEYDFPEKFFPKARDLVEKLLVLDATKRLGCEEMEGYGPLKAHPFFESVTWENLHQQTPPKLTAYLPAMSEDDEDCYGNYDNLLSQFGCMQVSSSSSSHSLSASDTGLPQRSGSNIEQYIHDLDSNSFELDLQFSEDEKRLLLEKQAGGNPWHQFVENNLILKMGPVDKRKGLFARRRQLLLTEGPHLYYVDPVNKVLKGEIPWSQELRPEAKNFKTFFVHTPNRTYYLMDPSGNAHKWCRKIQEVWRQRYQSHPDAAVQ
MEASURED_PROPERTY: IC50

Which IC50 value is on record for "C[C@H]1CN(C(=O)CC#N)[C@]12CCN(c1ncnc3[nH]ccc13)C2" ? > 1000 nM
